# credit: paper PMC6917776

Experiment: CelltiterGlo viability cell assay
Type: cell-based
Details: human, SKMM2 cells, SKMM2, 3 day, 0.01 uM; read-out: viability Average
RECORDED_ENDPOINT: viability at 3 day, 0.01 µM

In [3]: df
Out[3]:
                              record_smiles  result_value
0  COc1cc(OC)cc(-c2noc(N3CCN(C)C4(CCN(c5ccnc(C)c5)CC4)C3)n2)c1          101%

----------
Assay: CelltiterGlo viability cell assay
Type: cell-based
Conditions: human, CAL851 breast cancer cells, CAL851, 3 day, 30 uM; read-out: viability Replicate 2
RECORDED_ENDPOINT: viability at 3 day, 30 µM (%)

>>> df
                                   compound  unit_spec  result_value
0  COc1cc(OC)cc(-c2noc(N3CCN(C)C4(CCN(c5ccnc(C)c5)CC4)C3)n2)c1 [MRK-740]          %          24.5

----------
Assay: CelltiterGlo viability cell assay
Type: cell-based
Settings: human, RPMI-8226 cells, 8226, 3 day, 0.01 uM; read-out: viability Replicate 1
RECORDED_ENDPOINT: viability at 3 day, 0.01 µM

                                   molecule  result_value
0  COc1cc(OC)cc(-c2noc(N3CCN(C)C4(CCN(c5ccnc(C)c5)CC4)C3)n2)c1 [MRK-740]         97.7%

----------
Test: CelltiterGlo viability cell assay
Format: cell-based
Details: human, SKMM2 cells (multiple myeloma line), SKMM2, 6 day, 0.03 uM; read-out: viability Average
RECORDED_ENDPOINT: viability at 6 day, 0.03 µM (%)

                              record_smiles  result_value
0  COc1cc(OC)cc(-c2noc(N3CCN(C)C4(CCN(c5ccnc(C)c5)CC4)C3)n2)c1          98.1

----------
Test: CelltiterGlo viability cell assay
Assay type: cell-based
Conditions: human, HCC1806 breast cancer cells, HCC1806, 3 day, 0.01 uM; read-out: viability Replicate 1
RECORDED_ENDPOINT: viability at 3 day, 0.01 µM (%)

In [3]: df
Out[3]:
                                   molecule  result_value
0  COc1cc(OC)cc(-c2noc(N3CCN(C)C4(CCN(c5ccnc(C)c5)CC4)C3)n2)c1 [MRK-740]           103

----------
Assay: CelltiterGlo viability cell assay
Type: cell-based
Settings: human, SKMM2 cells (multiple myeloma line), SKMM2, 6 day, 0.1 uM; read-out: viability Replicate 2
RECORDED_ENDPOINT: viability at 6 day, 0.1 µM (%)

In [3]: df
Out[3]:
                              record_smiles           recorded_endpoint  unit_spec  result_value
0  COc1cc(OC)cc(-c2noc(N3CCN(C)C4(CCN(c5ccnc(C)c5)CC4)C3)n2)c1  viability at 6 day, 0.1 µM          %           107

----------
Test: CelltiterGlo viability cell assay
Assay type: cell-based
Conditions: human, SKMM2 cells, SKMM2, 3 day, 0.01 uM; read-out: viability Replicate 1
RECORDED_ENDPOINT: viability at 3 day, 0.01 µM (%)

>>> df
                              record_smiles            recorded_endpoint  result_value
0  COc1cc(OC)cc(-c2noc(N3CCN(C)C4(CCN(c5ccnc(C)c5)CC4)C3)n2)c1  viability at 3 day, 0.01 µM           101
